Test system: RPMI-8226 leukemia
Method Summary: NCI-60 one-dose screen, 48 h
Run Conditions: 10 µM
This is part of a sample that, as a whole, favours compounds with a hit. Of some 83,000 tested, about 20% had one in any assay. Active and inactive are the calls of the source. Rule for the calls: active = growth percent below 10; inactive = the rest.
Bench note: report the call from yes for active, no for inactive

Any idea what this test logged for CCN(CC)c1ccc(/C=C2\SC(=O)C(Nc3nnc(-c4cccnc4SCc4ccccc4)o3)C2=O)cc1 (stereo not drawn) ? no

Any idea what this test logged for O=C(CN(C1CCCCC1)C1CCCCC1)Nc1ccc(S(=O)(=O)c2ccc(NC(=O)CN(C3CCCCC3)C3CCCCC3)cc2)cc1 ? yes

Any idea what this test logged for COc1ccccc1N1CCCSC1=Nc1ccccc1 ? no

Any idea what this test logged for CC[C@@H](C(=O)[C@@H](C)[C@@H](O)[C@H](C)[C@@H]1O[C@@H]([C@@H](CC)C(=O)O)CC[C@@H]1C)C1O[C@]2(C=CC(=O)[C@]3(CC[C@@](C)([C@H]4CC[C@](O)(CC)[C@H](C)O4)O3)O2)[C@H](C)C[C@@H]1C (stereo partly drawn) ? yes

Any idea what this test logged for O=C1/C(=C/c2cccc(F)c2)Cc2ccccc21 ? no

Any idea what this test logged for COc1ccc2nc3cc(Cl)ccc3c(Nc3cc(CN4CCCC4)c(O)c(CN4CCCC4)c3)c2n1 ? yes

Any idea what this test logged for CC(CN(C)C)Oc1ccccc1NC1=C(Cl)C(=O)C(Nc2ccccc2OC(C)CN(C)C)=C(Cl)C1=O (stereo not drawn) ? yes

Any idea what this test logged for CC(=O)Nc1ccc(CC[C@H]2CCC/C=C/[C@@H]3C[C@H](O)C[C@H]3[C@H](O)/C=C/C(=O)O2)cc1 ? yes
